pIC50: −log10 of the molar value.
Published pIC50 for DGKα (Homo sapiens, UniProt P23743), assembled from different documents, is shown next.
Binary classification by pIC50, with 5 as an inclusive lower bound for TRUE; all other cases are FALSE.

Please review the entries below; each comes with its answer.
CCn1c(CC#N)nc2c(N3C[C@@H](C)N(C(C)c4ccc5c(n4)C(F)(F)CCO5)C[C@@H]3C)nc(=O)n(C)c21 (stereo partly shown)
FALSE
COc1ccc(-c2ccc(CN3C(=O)[C@@H](N)CS(=O)(=O)c4ccc(-c5nnc(N(C)CC(F)(F)F)o5)cc43)cc2)cc1
TRUE
Cc1nc2cc(C(C)N3C[C@H](C)N(c4cc(=O)n(C)c5cn(CC#N)nc45)C[C@H]3C)ccc2o1 (stereo partly shown)
FALSE
COCc1cn2c(n1)c(N1C[C@@H](C)N(C(C)c3ccc4nccnc4c3)C[C@@H]1C)cc(=O)n2C (stereo partly shown)
TRUE
CC[C@H]1CN(C(C)c2ccc3c(n2)C(C)(C)CO3)[C@H](CC)CN1c1cc(=O)n(C)c2cn(CC#N)nc12 (stereo partly shown)
TRUE

Check this compound for pIC50 at or above 5: [2H]C([2H])([2H])n1c(=O)cc(N2C[C@@H](CC)N(C(C)c3ccc4nccnc4c3)C[C@@H]2CC)c2nn(CC#N)cc21 (stereo partly shown) TRUE

Check this compound for pIC50 at or above 5: N[C@H]1CS(=O)(=O)c2ccc(-c3nnc(N4CCC(F)(F)CC4)o3)cc2N(Cc2ccc(-n3ccc(C(F)(F)F)n3)cc2)C1=O FALSE

Check this compound for pIC50 at or above 5: CC(c1ccc(F)cc1OC(C)(F)F)N1C[C@H](C)N(c2nc(=O)n(C)c3c2nc(CC#N)n3C)C[C@H]1C (stereo partly shown) FALSE

Check this compound for pIC50 at or above 5: Cn1nc(C(F)(F)F)cc1-c1ccc(CN2C(=O)[C@@H](N)CS(=O)(=O)c3ccc(-c4nnc(C(C)(C)C)o4)cc32)cc1 FALSE

Check this compound for pIC50 at or above 5: CC[C@@H]1CN(c2nc(=O)n(C)c3c2nc(CC#N)n3CC)[C@@H](C)CN1C(C)c1ccc2c(c1)OC(C)(C)CO2 (stereo partly shown) FALSE

Check this compound for pIC50 at or above 5: CC[C@H]1CN(C(C)c2ccc(F)cc2C(=O)OC)[C@H](CC)CN1c1cc(=O)n(C)c2cn(CC#N)nc12 (stereo partly shown) FALSE

Check this compound for pIC50 at or above 5: C=C(C)n1cc2c(n1)c(N1C[C@@H](C)N(C(C)c3ccc4nccnc4c3)C[C@@H]1C)cc(=O)n2C (stereo partly shown) TRUE

====

Published log10(IC50) for DGKα (Homo sapiens, UniProt P23743), assembled from different documents, is shown next.
// units: µM (pre-log); metric: IC50; scale: log10

Use these answered entries as a reference point.
CCn1c(CC#N)nc2c(N3C[C@@H](C)N(C(C)c4ccnc(OC(C)C)c4)C[C@@H]3C)nc(=O)n(C)c21 (stereo partly shown)
2.05
N[C@H]1CS(=O)(=O)c2ccc(-c3nnc(C4(N)CCCCC4)o3)cc2N(Cc2ccc(-c3ccc(C(F)(F)F)cc3)cc2)C1=O
1.48

Below is a list of compounds. For each, state its recorded log10(IC50).
1. CC(c1ccc(F)cc1C(F)F)N1C[C@H](C)N(c2nc(=O)n(C)c3c2nc(CC#N)n3C)C[C@H]1C (stereo partly shown)
2. N[C@H]1CS(=O)(=O)c2ccc(-c3nnc(N4CCOC(C(F)(F)F)C4)o3)cc2N(Cc2ccc(-c3ccc(C(F)(F)F)cn3)cc2)C1=O (stereo partly shown)
3. Cc1nc2cc(C(C)N3C[C@H](C)N(c4cc(=O)n(C)c5cn(CC#N)nc45)C[C@H]3C)ccc2s1 (stereo partly shown)
4. CC(c1ccc2ncc(Cl)nc2c1)N1C[C@H](C)N(c2cc(=O)n(C)n3cc(CC#N)nc23)C[C@H]1C (stereo partly shown)
5. CC#CC(c1ccc(C)cc1)N1C[C@H](C)N(c2nc(=O)n(C)c3c2nc(CC#N)n3CC)C[C@H]1C (stereo partly shown)
6. CC(c1ccc2c(c1)OCCO2)N1C[C@H](C)N(c2cc(=O)n(C)c3cn(CC#N)nc23)C[C@H]1C (stereo partly shown)

1: 1.65; 2: 1.66; 3: 1.06; 4: 0.43; 5: 0.75; 6: 0.46

====

Published pIC50 for DGKα (Homo sapiens, UniProt P23743), assembled from different documents, is shown next.
Answers are plain numbers, as −log10 of the molar value.

CC[C@H]1CN(C(C)c2ccncn2)[C@H](CC)CN1c1cc(=O)n(C)c2cn(CC#N)nc12 (stereo partly shown)
6.54

Below is a list of compounds. For each, state its recorded pIC50.
1. CC#CCn1cc2c(n1)c(N1C[C@@H](C)N(C(C)c3ccc4c(c3)OC(C)(C)O4)C[C@@H]1C)cc(=O)n2C (stereo partly shown)
2. CC(C)(C)c1nnc(-c2ccc3c(c2)N(Cc2ccc(-c4nnc(C(F)(F)F)o4)cc2)C(=O)[C@@H](N)CS3(=O)=O)o1
3. CCn1c(CC#N)nc2c(N3C[C@@H](C)N(C(C)c4cccc(C5(C)CC5)c4)C[C@@H]3C)nc(=O)n(C)c21 (stereo partly shown)

5.34
6.55
3.91

====

Published IC50 for DGKα (Homo sapiens), assembled from different documents, is shown next.

CC[C@@H]1CN(c2cc(=O)n(C)c3cn(CC#N)nc23)[C@@H](COC)CN1C(C)c1ccc2nccnc2c1 (stereo partly drawn)
7.45 µM

Below is a list of compounds. For each, state its recorded IC50.
1. [2H]C([2H])([2H])n1c(CC#N)nc2c(N3C[C@@H](C)N(C(C)c4ccc(F)cc4C(F)(F)F)C[C@@H]3C)nc(=O)n(C)c21 (stereo partly drawn)
2. CCn1c(CC#N)nc2c(N3C[C@@H](C)N(C(C)c4ccn(C)c(=O)c4)C[C@@H]3C)nc(=O)n(C)c21 (stereo partly drawn)
3. CC(c1ccc2ncc(C(C)(F)F)nc2c1)N1C[C@H](C)N(c2cc(=O)n(C)c3cn(CC#N)nc23)C[C@H]1C (stereo partly drawn)
4. CC#CCn1cc2c(n1)c(N1C[C@@H](CC)N(C(C)c3ccc4nccnc4c3)C[C@@H]1CC)cc(=O)n2C (stereo partly drawn)
5. CC(C)(C#N)c1nnc(-c2ccc3c(c2)N(Cc2ccc(-c4cnc(OC(F)(F)F)cn4)cc2)C(=O)[C@@H](N)CS3(=O)=O)o1
6. CCn1c(CC#N)nc2c(N3C[C@@H](C)N(C(C)c4cccc(C(C)C)c4)C[C@@H]3C)nc(=O)n(C)c21 (mixture of isomers)

["128 µM", "> 150 µM", "66 µM", "0.12 µM", "1.75 µM", "95.1 µM"]

====

Published log10 of IC50 for DGKα (Homo sapiens), assembled from different documents, is shown next.
// units: µM (pre-log); metric: IC50; scale: log10

Use these answered entries as a reference point.
COCC[C@H]1CN(C(C)c2ccc3nccnc3c2)[C@H](C)CN1c1cc(=O)n(C)c2cn(CC#N)nc12 (some centres unmarked)
0.95
CCn1c(CC#N)nc2c(N3C[C@@H](C)N(C(C)c4cc(C(F)(F)F)ccc4F)C[C@@H]3C)nc(=O)n(C)c21 (some centres unmarked)
2.13
CC[C@H]1CN(C(C)c2ccc3nccnc3c2)[C@H](CC)CN1c1cc(=O)n(CC(F)(F)F)c2cn(CC#N)nc12 (some centres unmarked)
0.78

Below is a list of molecules. For each, state its recorded log10 of IC50.
1. CC[C@H]1CN(C(C)c2cccc3c2OC(F)(F)O3)[C@H](CC)CN1c1cc(=O)n(C)c2cn(CC#N)nc12 (some centres unmarked)
2. CC[C@H]1CN(C(C)c2ccc3c(n2)OCCO3)[C@H](CC)CN1c1cc(=O)n(C)c2cn(CC#N)nc12 (some centres unmarked)
3. CCn1c(CC#N)nc2c(N3C[C@@H](C)N(C(C)c4ccnc(-c5ccccc5)c4)C[C@@H]3C)nc(=O)n(C)c21 (some centres unmarked)
4. COC(C)c1cn2c(n1)c(N1C[C@@H](C)N(C(C)c3ccc4nccnc4c3)C[C@@H]1C)cc(=O)n2C (some centres unmarked)
5. COCc1cc(F)ccc1C(C)N1C[C@H](C)N(c2cc(=O)n(C)c3cn(CC#N)nc23)C[C@H]1C (some centres unmarked)
6. COc1cnc2cc(C(C)N3C[C@H](C)N(c4cc(=O)n(C)c5cn(CC#N)nc45)C[C@H]3C)ccc2n1 (some centres unmarked)
7. CC[C@H]1CN(C(C)c2ccc3nccnc3c2)[C@H](CC)CN1c1cc(=O)[nH]n2cc(CC#N)nc12 (some centres unmarked)

0.99
-0.72
1.87
1.34
1.36
1.09
0.64

Below is a list of molecules. For each, state its recorded log10 of IC50.
1. COc1ccc(-c2ccc(CN3C(=O)[C@@H](N)CS(=O)(=O)c4ccc(-c5nnc(N6CCC(F)(F)C6)o5)cc43)cc2)cc1
2. Cn1nc(C(F)(F)F)cc1-c1ccc(CN2C(=O)[C@@H](N)CS(=O)(=O)c3ccc(-c4nnc(C(C)(C)C#N)o4)cc32)cc1
3. CC[C@H]1CN(C(C)c2nccn2CC)[C@H](CC)CN1c1cc(=O)n(C)c2cn(CC#N)nc12 (some centres unmarked)

1: 1.42; 2: 0.11; 3: 2.02

Below is a list of molecules. For each, state its recorded log10 of IC50.
1. CCn1c(CC#N)nc2c(N3C[C@@H](C)N(C(C)c4ccc5c(c4)OC4(CCC4)O5)C[C@@H]3C)nc(=O)n(C)c21 (mixture of isomers)
2. C=CCn1cc2c(n1)c(N1C[C@@H](C)N(C(C)c3ccc4nccnc4c3)C[C@@H]1C)cc(=O)n2C (single isomer, unassigned)
3. CC[C@@H]1CN(c2cc(=O)n(C)n3cc(CC#N)nc23)[C@@H](CC)CN1Cc1ccc(OC(F)(F)F)cc1

1: 1.45; 2: 1.82; 3: -1.85
